# Test system: Polygonum convolvulus
# assay.details: Post-emergence herbicidal activity against POLCO
# Type: in vivo
# particulars: Fallopia convolvulus, 504 h, dosage 320 g/ha, rated visually after about 3 weeks
Measured pest or weed control at 320 g/ha by item
State the answer as a number, implicitly in %.

Consider the worked cases shown below.
compound | pest or weed control at 320 g/ha (%)
CNC(=O)C1COCC1NC(=O)C1(C)CC(c2cc(F)cc(F)c2)=NO1 (stereo not drawn) | 80
C=C[C@]1(C(=O)N[C@@H]2CO[C@H](C(=O)NS(=O)(=O)C(F)(F)F)C2)CC(c2cc(F)cc(F)c2)=NO1 (mixture of isomers) | 80

# input for lookup
[in] Fill in reported pest or weed control at 320 g/ha for this entry: C=C[C@]1(C(=O)N[C@@H]2CO[C@H](C(=O)NC3CC3)C2)CC(c2cc(F)cc(F)c2)=NO1 (mixture of isomers)
[out] 90

----------
Measured Pre-emergence herbicidal activity in % against LOLRI by item
# System: Lolium rigidum
# assay.details: Pre-emergence herbicidal activity against LOLRI
# Type: in vivo
# particulars: dosage 80 g/ha, scored visually after about 3 weeks vs untreated controls
# Source text: 1. Pre-emergence herbicidal action against harmful plants and crop plant compatibility Seeds of monocotyledonous and dicotyledonous weed plants and crop plants are placed in plastic or wood fiber pots and covered with soil. […] After about 3 weeks, the effect of the preparations is scored visually in comparison with untreated controls as percentages. […]
State the answer as a number, implicitly in %.

Consider the worked cases shown below.
mol.smiles | experimental.system | measured
CN(C)C(=O)[C@@H]1C[C@H](NC(=O)[C@@]2(C)CC(c3cc(F)cc(F)c3)=NO2)CO1 | Lolium rigidum | 100
CONC(=O)[C@@H]1C[C@H](NC(=O)[C@@]2(C)CC(c3cc(F)cc(F)c3)=NO2)CO1 | Lolium rigidum | 100

[in] Fill in reported Pre-emergence herbicidal activity in % against LOLRI for this entry: `C=C[C@]1(C(=O)N[C@@H]2CO[C@H](C(=O)NCC(=O)OC)C2)CC(c2cc(F)cc(F)c2)=NO1`
[out] 100

----------
# Test system: Hordeum murinum
# assay.details: Post-emergence herbicidal activity against HORMU
# Type: in vivo
# particulars: dosage 320 g/ha, rated visually after about 3 weeks
measured.metric: Post-emergence herbicidal activity in % against HORMU
Answer with the number, then the unit.

compound | measured
C[C@]1(C(=O)N[C@@H]2CO[C@H](C(=O)NS(C)(=O)=O)C2)CC(c2cc(F)cc(F)c2)=NO1 | 100%

[in] Fill in reported Post-emergence herbicidal activity in % against HORMU for this entry: `C=C[C@]1(C(=O)N[C@@H]2CO[C@H](C(=O)NCCC(=O)OC)C2)CC(c2cc(F)cc(F)c2)=NO1`
[out] 100%

[in] Fill in reported Post-emergence herbicidal activity in % against HORMU for this entry: `CN(C)NC(=O)[C@@H]1C[C@H](NC(=O)[C@@]2(C)CC(c3cc(F)cc(F)c3)=NO2)CO1`
[out] 100%

[in] Fill in reported Post-emergence herbicidal activity in % against HORMU for this entry: `C=C[C@]1(C(=O)N[C@@H]2CO[C@H](C(=O)NS(=O)(=O)CCC)C2)CC(c2cc(F)cc(F)c2)=NO1`
[out] 90%

----------
Measured Pre-emergence herbicidal activity in % against ECHCG by item
# System: Echinochloa crus-galli
# assay.details: Pre-emergence herbicidal activity against ECHCG
# Assay type: in vivo
# particulars: dosage 80 g/ha, scored visually after about 3 weeks vs untreated controls
State the answer as a number, implicitly in %.

compound | units | measured
CN(C)C(=O)[C@@H]1C[C@H](NC(=O)[C@@]2(C)CC(c3cc(F)cc(F)c3)=NO2)CO1 [Example I-25] | % | 80

# input for lookup
[in] Fill in reported Pre-emergence herbicidal activity in % against ECHCG for this entry: CN(C)NC(=O)[C@@H]1C[C@H](NC(=O)[C@@]2(C)CC(c3cc(F)cc(F)c3)=NO2)CO1 [Example I-26]
[out] 90
